molecular target: Ba/F3 L858R/T790M/C797S EGFR triple mutant cell line (Homo sapiens, UniProt P00533, T790M/C797S/L858R, cells depend on it); test: Cell proliferation inhibition experiment (CellTiter-Glo), Ba/F3 L858R/T790M/C797S; type: cell-based; details: 72 hours, Cell Titer-Glo, read-out: Ba/F3 (L858R/T790M/C797S) IC50
Sequence (P00533 whole entry T790M/C797S/L858R): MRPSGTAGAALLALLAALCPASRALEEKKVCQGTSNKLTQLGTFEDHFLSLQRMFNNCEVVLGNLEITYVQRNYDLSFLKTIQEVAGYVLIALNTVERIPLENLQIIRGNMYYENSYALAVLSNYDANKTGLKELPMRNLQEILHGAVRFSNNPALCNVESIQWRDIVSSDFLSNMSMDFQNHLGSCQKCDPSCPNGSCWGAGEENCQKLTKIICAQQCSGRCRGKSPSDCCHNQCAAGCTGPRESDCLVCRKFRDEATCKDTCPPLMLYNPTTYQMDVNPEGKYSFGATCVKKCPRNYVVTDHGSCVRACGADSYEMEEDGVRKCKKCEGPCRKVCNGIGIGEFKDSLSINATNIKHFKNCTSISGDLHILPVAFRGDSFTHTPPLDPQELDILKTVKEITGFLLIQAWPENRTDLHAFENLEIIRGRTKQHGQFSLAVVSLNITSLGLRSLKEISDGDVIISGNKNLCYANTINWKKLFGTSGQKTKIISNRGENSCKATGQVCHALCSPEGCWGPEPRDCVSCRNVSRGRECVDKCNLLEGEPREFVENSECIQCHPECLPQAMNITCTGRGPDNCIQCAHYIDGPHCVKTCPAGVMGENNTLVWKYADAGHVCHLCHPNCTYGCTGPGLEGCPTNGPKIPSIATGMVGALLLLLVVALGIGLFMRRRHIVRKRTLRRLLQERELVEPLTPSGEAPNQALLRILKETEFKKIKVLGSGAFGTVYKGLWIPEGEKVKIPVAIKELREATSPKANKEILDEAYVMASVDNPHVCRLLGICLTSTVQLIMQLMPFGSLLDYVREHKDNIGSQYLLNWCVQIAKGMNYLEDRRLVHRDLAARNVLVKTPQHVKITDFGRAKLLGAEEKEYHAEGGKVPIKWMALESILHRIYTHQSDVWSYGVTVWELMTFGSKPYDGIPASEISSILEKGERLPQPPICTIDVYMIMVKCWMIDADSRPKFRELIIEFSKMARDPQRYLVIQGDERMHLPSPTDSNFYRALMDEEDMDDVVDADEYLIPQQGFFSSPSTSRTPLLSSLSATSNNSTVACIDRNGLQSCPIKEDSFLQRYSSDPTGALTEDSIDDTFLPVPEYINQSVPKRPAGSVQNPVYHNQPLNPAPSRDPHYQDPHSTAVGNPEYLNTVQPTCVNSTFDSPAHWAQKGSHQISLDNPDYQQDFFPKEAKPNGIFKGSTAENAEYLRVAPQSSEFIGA
Measured log10 of GI50 of individual entries
Measured attribute: log10 of GI50 (log10 of the value in nM)

| Smiles | log10 of GI50 |
| --- | --- |
| COc1cc(N2CCC(N(C)C)CC2)c(-c2cnn(C)c2)cc1Nc1ncc(Br)c(Nc2ccc3nccnc3c2P(C)(C)=O)n1 | 0.97 |
| COc1cc(N2CCOCC2)c(-c2cnn(C)c2)cc1Nc1ncc(C(F)(F)F)c(Nc2ccc3nccnc3c2P(C)(C)=O)n1 | 0.94 |
| CN1CCC2(CC1)CCN(c1nc(OCC(F)(F)F)c(Nc3ncc(Br)c(Nc4ccc5nccnc5c4P(C)(C)=O)n3)cc1-c1cnn(C)c1)CC2 | 1.15 |
| COc1cc(N2CCN(C(C)C)CC2)c(-c2cnn(C)c2)cc1Nc1ncc(Br)c(Nc2ccc3nccnc3c2P(C)(C)=O)n1 | 0.65 |
| COc1cc(N2CCC(OCCN(C)C)CC2)c(-c2cnn(C)c2)cc1Nc1ncc(Br)c(Nc2ccc3nccnc3c2P(C)(C)=O)n1 | 0.98 |
| COc1cc(N2CCNCC2)c(-c2cnn(C)c2)cc1Nc1ncc(Br)c(Nc2ccc3nccnc3c2P(C)(C)=O)n1 | 2.08 |

* * *

Measured log10 of GI50 of individual entries
target: Ba/F3 De119/T790M/C797S EGFR triple mutant cell line (Homo sapiens, UniProt P00533, T790M/C797S, cells depend on it, form not given); experiment: Cell proliferation inhibition experiment (CellTiter-Glo), Ba/F3 De119/T790M/C797S; assay type: cell-based; conditions: Ba/F3 Del19/T790M/C797S EGFR triple mutant cells, 72 hours, Cell Titer-Glo; read-out: Ba/F3 (Del19/T790M/C797S) IC50
Sequence (P00533 with tags, fused parts or gaps DEL746-750/T790M/C797S, form open): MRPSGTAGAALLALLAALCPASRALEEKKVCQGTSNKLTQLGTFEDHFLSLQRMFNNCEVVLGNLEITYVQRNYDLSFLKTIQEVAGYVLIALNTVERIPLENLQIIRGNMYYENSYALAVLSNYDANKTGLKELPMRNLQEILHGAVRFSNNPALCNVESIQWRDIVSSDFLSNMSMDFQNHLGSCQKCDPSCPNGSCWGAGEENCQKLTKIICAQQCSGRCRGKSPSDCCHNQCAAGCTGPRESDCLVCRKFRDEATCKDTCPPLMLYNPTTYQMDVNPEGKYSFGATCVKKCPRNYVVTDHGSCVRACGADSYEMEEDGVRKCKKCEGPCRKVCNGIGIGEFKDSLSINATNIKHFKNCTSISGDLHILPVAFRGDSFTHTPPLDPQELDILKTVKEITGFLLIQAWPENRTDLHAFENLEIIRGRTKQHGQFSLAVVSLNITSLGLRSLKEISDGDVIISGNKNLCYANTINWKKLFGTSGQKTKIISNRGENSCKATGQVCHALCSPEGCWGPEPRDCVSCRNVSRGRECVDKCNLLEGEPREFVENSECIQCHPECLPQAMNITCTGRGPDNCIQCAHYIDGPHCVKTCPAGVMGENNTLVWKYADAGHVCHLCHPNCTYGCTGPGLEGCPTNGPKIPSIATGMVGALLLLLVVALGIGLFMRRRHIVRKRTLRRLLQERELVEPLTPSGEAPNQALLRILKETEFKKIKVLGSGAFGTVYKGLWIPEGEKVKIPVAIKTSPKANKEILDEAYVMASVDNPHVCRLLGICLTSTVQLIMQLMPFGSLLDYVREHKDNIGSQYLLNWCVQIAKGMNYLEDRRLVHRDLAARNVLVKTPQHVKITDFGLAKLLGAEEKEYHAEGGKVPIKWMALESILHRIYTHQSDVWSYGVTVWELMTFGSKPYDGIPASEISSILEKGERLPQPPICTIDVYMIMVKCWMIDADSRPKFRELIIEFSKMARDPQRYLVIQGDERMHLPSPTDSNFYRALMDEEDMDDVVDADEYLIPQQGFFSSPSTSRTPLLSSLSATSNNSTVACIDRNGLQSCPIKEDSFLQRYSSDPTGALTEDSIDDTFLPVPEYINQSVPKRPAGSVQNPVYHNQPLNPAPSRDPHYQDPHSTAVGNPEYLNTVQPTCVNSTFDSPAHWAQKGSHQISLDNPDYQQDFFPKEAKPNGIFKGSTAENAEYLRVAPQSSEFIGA
Measured attribute: log10 of GI50 (log10 of the value in nM)

| Smiles | log10 of GI50 |
| --- | --- |
| COc1cc(N2CCC3(CC2)CCN(C2COC2)CC3)c(-c2cnn(C)c2)cc1Nc1ncc(Br)c(Nc2ccc3nccnc3c2P(C)(C)=O)n1 | 0.07 |
| COc1cc(N2CCS(=O)(=O)CC2)c(-c2cnn(C)c2)cc1Nc1ncc(Br)c(Nc2ccc3nccnc3c2P(C)(C)=O)n1 | 0.84 |
| Cn1cc(-c2cc(Nc3ncc(Br)c(Nc4ccccc4P(C)(C)=O)n3)c(OCC(F)(F)F)nc2N2CCOCC2)cn1 | 1.39 |
| COc1cc(N2CCC(N3CC(F)C3)CC2)c(-c2cnn(C)c2)cc1Nc1ncc(Br)c(Nc2ccc3nccnc3c2P(C)(C)=O)n1 | -0.03 |
| COc1cc(N2CCN(C)C(C)(C)C2)c(-c2cnn(C)c2)cc1Nc1ncc(Br)c(Nc2ccc3nccnc3c2P(C)(C)=O)n1 | 1.10 |
| COCCN1CCN(C2CCN(c3cc(OC)c(Nc4ncc(Br)c(Nc5ccc6nccnc6c5P(C)(C)=S)n4)cc3-c3cnn(C)c3)CC2)CC1 | 0.50 |

* * *

target: L858R/T790M/C797S triple mutant EGFR (Homo sapiens, UniProt P00533, C797S/L858R/T790M); construct: purchased Signalchem; experiment: Enzymology experiment in vitro (HTRF/FRET kinase activity), L858R/T790M/C797S triple mutant EGFR; assay type: biochemical; conditions: HTRF KinEASE-TK, read-out: EGFR (L858R/T790M/C797S) IC50
Sequence (P00533 25-1210 T790M/C797S/L858R): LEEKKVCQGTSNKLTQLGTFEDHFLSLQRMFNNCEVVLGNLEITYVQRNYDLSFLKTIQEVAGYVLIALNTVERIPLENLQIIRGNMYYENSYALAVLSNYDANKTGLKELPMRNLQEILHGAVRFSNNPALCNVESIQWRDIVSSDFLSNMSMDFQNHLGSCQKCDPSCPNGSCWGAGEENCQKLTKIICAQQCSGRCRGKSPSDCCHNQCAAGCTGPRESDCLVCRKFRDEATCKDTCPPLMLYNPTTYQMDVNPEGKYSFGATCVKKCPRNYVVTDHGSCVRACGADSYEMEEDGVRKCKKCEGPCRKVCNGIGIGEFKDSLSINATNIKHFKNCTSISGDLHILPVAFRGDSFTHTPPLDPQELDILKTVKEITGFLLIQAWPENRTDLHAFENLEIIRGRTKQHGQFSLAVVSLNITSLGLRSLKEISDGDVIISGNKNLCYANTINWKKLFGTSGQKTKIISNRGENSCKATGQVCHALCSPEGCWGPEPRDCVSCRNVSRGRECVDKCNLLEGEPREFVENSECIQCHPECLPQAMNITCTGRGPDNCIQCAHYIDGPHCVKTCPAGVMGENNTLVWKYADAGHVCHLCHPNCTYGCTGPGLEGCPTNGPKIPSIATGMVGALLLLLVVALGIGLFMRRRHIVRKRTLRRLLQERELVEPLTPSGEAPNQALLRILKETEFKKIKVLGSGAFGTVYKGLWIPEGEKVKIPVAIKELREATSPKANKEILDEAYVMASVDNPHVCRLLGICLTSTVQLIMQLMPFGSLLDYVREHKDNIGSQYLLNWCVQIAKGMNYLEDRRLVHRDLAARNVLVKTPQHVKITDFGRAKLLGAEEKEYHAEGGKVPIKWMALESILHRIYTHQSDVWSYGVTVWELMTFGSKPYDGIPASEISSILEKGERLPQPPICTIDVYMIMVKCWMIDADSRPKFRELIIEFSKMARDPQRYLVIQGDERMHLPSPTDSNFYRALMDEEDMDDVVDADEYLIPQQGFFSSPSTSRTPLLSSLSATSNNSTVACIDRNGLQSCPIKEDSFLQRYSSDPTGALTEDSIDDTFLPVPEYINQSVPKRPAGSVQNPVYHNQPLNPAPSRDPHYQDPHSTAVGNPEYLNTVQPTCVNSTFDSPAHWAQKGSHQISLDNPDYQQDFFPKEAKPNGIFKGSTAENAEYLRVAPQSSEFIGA
pIC50: −log10 of the molar value.
Cut-off 10 on pIC50, inclusive. At or above means y; below means n.

| Compound | Class name |
| --- | --- |
| COc1ncc(-c2cnn(C)c2)cc1Nc1ncc(Br)c(Nc2ccc3nccnc3c2P(C)(C)=O)n1 [compound 30] | n |
| COc1cc(N2CCN3CCC[C@@H]3C2)c(-c2cnn(C)c2)cc1Nc1ncc(Br)c(Nc2ccc3nccnc3c2P(C)(C)=O)n1 [compound 176] | n |
| COc1cc(N2CCC(N3CCN(CCF)CC3)CC2)c(-c2cnn(C)c2)cc1Nc1ncc(Br)c(Nc2ccccc2N(C)S(=O)(=O)C2CC2)n1 [compound 209] | n |
| COc1cc(N2CCN3CCCC3C2)c(-c2cnn(C)c2)cc1Nc1ncc(Br)c(Nc2ccc3nccnc3c2P(C)(C)=O)n1 (stereo not drawn) [compound 130] | y |
| COc1cc(N2CCC(N3CCN(C)C(C)C3)CC2)c(-c2cnn(C)c2)cc1Nc1ncc(Br)c(Nc2ccc3nccnc3c2P(C)(C)=O)n1 (stereo not drawn) [compound 193] | n |

* * *

target: Ba/F3 De119/T790M/C797S EGFR triple mutant cell line (Homo sapiens, UniProt P00533, T790M/C797S, cells depend on it, form not given); test: Cell proliferation inhibition experiment (CellTiter-Glo), Ba/F3 De119/T790M/C797S; format: cell-based; conditions: Ba/F3 Del19/T790M/C797S EGFR triple mutant cells, 72 hours, Cell Titer-Glo; read-out: Ba/F3 (Del19/T790M/C797S) IC50
Measured attribute: GI50 (nM)

| Compound | Reported result |
| --- | --- |
| COc1cc(N2CCOCC2)c(-c2cnn(C)c2)cc1Nc1ncc(Br)c(Nc2ccc3c(c2P(C)(C)=O)CC3)n1 [compound 85] | 6.15 |
| COc1cc(N2C[C@H]3C[C@@H]2CO3)c(-c2cnn(C)c2)cc1Nc1ncc(Br)c(Nc2ccc3nccnc3c2P(C)(C)=O)n1 [compound 114] | 5.86 |
| COc1cc(N2CCOCC2)c(-c2cnn(C)c2)cc1Nc1ncc(Br)c(Nc2ccccc2P(C)(C)=O)n1 [Compound 2] | 4.21 |
| COc1cc(N2CCN3CCOCC3C2)c(-c2cnn(C)c2)cc1Nc1ncc(Br)c(Nc2ccc3nccnc3c2P(C)(C)=O)n1 (stereo not shown) [compound 161] | 2.36 |
| CN1CCOc2c(Nc3ncc(Br)c(Nc4ccc5nccnc5c4P(C)(C)=O)n3)cc(-c3cnn(C)c3)cc21 [compound 47] | 4.31 |
| COc1cc(N2CCC3CCN(CC4CC4)C3C2)c(-c2cnn(C)c2)cc1Nc1ncc(Br)c(Nc2ccc3nccnc3c2P(C)(C)=O)n1 (stereo not shown) [compound 227] | 2.78 |
| COc1cc(N2CCC3CCN(C)C3C2)c(-c2cnn(C)c2)cc1Nc1ncc(Br)c(Nc2ccc3nccnc3c2P(C)(C)=O)n1 (stereo not shown) [compound 168] | 0.71 |

* * *

target: Ba/F3 L858R/T790M/C797S EGFR triple mutant cell line (Homo sapiens, UniProt P00533, T790M/C797S/L858R, cells depend on it); test: Cell proliferation inhibition experiment (CellTiter-Glo), Ba/F3 L858R/T790M/C797S; assay type: cell-based; details: 72 hours, Cell Titer-Glo, read-out: Ba/F3 (L858R/T790M/C797S) IC50
Field: label. Allowed values: Criterion met (GI50 < 6 nM) or Criterion not met (GI50 >= 6 nM).

| Compound | Class name |
| --- | --- |
| COc1cc(N2CCC(OC)CC2)c(-c2cnn(C)c2)cc1Nc1ncc(Br)c(Nc2ccc3nccnc3c2P(C)(C)=O)n1 | Criterion met |
| COc1cc(N2CCOC(CO)C2)c(-c2cnn(C)c2)cc1Nc1ncc(Br)c(Nc2ccc3nccnc3c2P(C)(C)=O)n1 (stereo not shown) | Criterion not met |
| COc1cc(N2CCC(N3CCN(C)CC3)CC2)c(-c2cnn(C)c2)cc1Nc1ncc(Br)c(Nc2cc3c(cc2N(C)S(C)(=O)=O)CC3)n1 | Criterion not met |
| COC[C@H]1CN(c2cc(OC)c(Nc3ncc(Br)c(Nc4ccc5nccnc5c4P(C)(C)=O)n3)cc2-c2cnn(C)c2)CCO1 | Criterion met |
| COc1cc(N2CCC3(CCN(CC4CC4)CC3)CC2)c(-c2cnn(C)c2)cc1Nc1ncc(Br)c(Nc2ccc3nccnc3c2P(C)(C)=O)n1 | Criterion met |
| CN(C)CCN1CCOc2c(Nc3ncc(Br)c(Nc4ccc5nccnc5c4P(C)(C)=O)n3)cc(-c3cnn(C)c3)cc21 | Criterion not met |
| COc1cc(N2CCC3(CC2)CN(C)CCO3)c(-c2cnn(C)c2)cc1Nc1ncc(Br)c(Nc2cc3c(cc2N(C)S(C)(=O)=O)CC3)n1 | Criterion not met |
| COc1cc(N2CCC(N3CCO[C@H](C)C3)CC2)c(-c2cnn(C)c2)cc1Nc1ncc(Br)c(Nc2ccc3nccnc3c2P(C)(C)=O)n1 | Criterion met |
| CN1CCC2(CC1)CCN(c1ccc(Nc3ncc(Br)c(Nc4ccc5nccnc5c4P(C)(C)=O)n3)cc1-c1cnn(C)c1)CC2 | Criterion not met |
| COc1cc(N2CCC3(CCOC3)C2)c(-c2cnn(C)c2)cc1Nc1ncc(Br)c(Nc2ccc3nccnc3c2P(C)(C)=O)n1 (stereo not shown) | Criterion not met |
| COc1cc(N2CCOCC2)c(-c2cn[nH]c2)cc1Nc1ncc(C)c(Nc2ccc3nccnc3c2P(C)(C)=O)n1 | Criterion not met |
| COc1cc(N2CCC(N3CCOCC3)CC2)c(-c2cnn(C)c2)cc1Nc1ncc(Br)c(Nc2ccc3nccnc3c2P(C)(C)=O)n1 [compound 210] | Criterion not met |
